The entries below come with measured cytotoxicity at 70.5 h values attached.
assayProtocol: Human HepG2 cell viability assay in 384 well format
Type: toxicity, cell-based
Design: dose 125 nL, time 70.5 hour; concentration not given beside the values
measurementConditions: HepG2 cells, read-out: Inhibition
The reply should contain only the number, in %.

O=c1c2cnc(N3CCOCC3)nc2ccn1-c1ccccc1 :: -7.35
CCc1cnc(NCc2nc(COC)no2)nc1 :: -11.1
CN1CCC2(Cc3ccccc3CN(C(=O)CCN)C2)C1 (stereo not drawn) :: 27.3
CC(C)(C)CC(=O)NCC(=O)Nc1ccn(Cc2cccnc2)n1 :: 3.55
CN(Cc1nc(Cc2cccc(C(F)(F)F)c2)no1)C1CCCCC1 :: -10.4

Ask: Would you mind telling me what cytotoxicity at 70.5 h value was observed for COc1ccccc1CC(=O)NS(=O)(=O)c1ccc(C(N)=O)cc1 ?
Reply: -12.7

Ask: Also Cc1ccc(C2(O)CCN(C(=O)c3cccc(S(C)(=O)=O)c3)CC2)nc1 ?
Reply: -4.42

Ask: Also CC(C)(C)OC(=O)NCC1CCCCN1Cc1cccnc1 (stereo not drawn) ?
Reply: -0.715

Ask: Also COc1cccc(F)c1C(C)NC(=O)NCc1cnc(C)s1 (stereo not drawn) ?
Reply: -1.56

Ask: Also CCOCC1CN(CC2CC2)Cc2nn(CC3CC3)cc21 (stereo not drawn) ?
Reply: 6.53

Ask: Also COCCC(=O)N1CCC2(CC1)CC(c1ccccc1)CN(C1CC1)C2 (stereo not drawn) ?
Reply: 0.742

Ask: Also O=C(NCCCN1CCOCC1)c1cc(-c2ccccc2)[nH]n1 ?
Reply: -1.59

Ask: Also CN1CCN(c2ncc(-c3cnccn3)c([C@H]3CCCO3)n2)CC1 ?
Reply: -8.8

Ask: Also CCCc1nc(N2CCCC(CCOC)C2)c2cnn(C)c2n1 (stereo not drawn) ?
Reply: 15.9

Ask: Also O=C1NCC2(CCCN(C(=O)c3c[nH]nc3C3CCCCC3)C2)O1 (stereo not drawn) ?
Reply: -10.2

Ask: Also O=C(c1ccc2nncn2c1)N1CCCC1c1noc(C2CC2)n1 (stereo not drawn) ?
Reply: -7.81

----------
The entries below come with measured cytotoxicity at 70.5 h values attached.
assayProtocol: Human HepG2 cell viability assay in 384 well format
Assay type: toxicity, cell-based
Parameters: dose 125 nL, time 70.5 hour; concentration not given beside the values
measurementConditions: HepG2 cells, read-out: Inhibition
The reply should contain only the number, in %.

FC(F)(F)c1nc(NC2CCCC2)c2ccccc2n1 :: -12.8
NC(=O)c1cc2c(nc1-c1ccc3c(c1)CCO3)CCC2 :: -5.32
CCCc1cnc(C)nc1N1CCC2(CCCO2)CC1 :: -1.28
Cc1cccnc1C(Cc1ccsc1)NCc1cnc(N(C)C)nc1 (centres undefined) :: -8.31
COc1cc(C(=O)Nc2cn[nH]c2)ccc1C :: -7

Ask: Would you mind telling me what cytotoxicity at 70.5 h value was observed for NC(=O)NC(=O)CCn1ccc(-c2ccsc2)n1 ?
Reply: -1.15

Ask: Also Cn1ccc(C(=O)N2CCCC2c2[nH]ncc2C(N)=O)n1 (centres undefined) ?
Reply: -4.61

Ask: Also N#Cc1cnn(-c2ccc(C(=O)Nc3ccccn3)cc2)c1N ?
Reply: 25.3

Ask: Also Cc1ccc(CC(=O)N2CCCC(c3nc(C)cs3)C2)cn1 (centres undefined) ?
Reply: -17.4

Ask: Also CNC(=O)[C@@H]1CC[C@@H]2[C@@H](CCN2Cc2ccccc2F)O1 ?
Reply: -4.13

Just for reference, ChEMBL document CHEMBL3507680 is where these values come from.
